Value source: patent US6413517B1

Listed here are molecules together with their documented IC50.
- study-target: DRB1*1201 (DR5w12) (Homo sapiens, UniProt P01903+P01911, A100R/A169T/D57E/D86V/F55L/H45Y/K41T/L162R/M171V/P40S/Q125H/Q178H/Q39Y/Q99D/R42G/S66L/T262R/V114A/V67L/W38E/Y59H/Y61H/Y89S)
- Construct: Epstein-Barr virus (EBV) transformed homozygous cell lines were used as sources; endogenous in cells; host or cells: Herluf (EBV-transformed homozygous B cell line)
- test: biochemical
- Assay type: binding
- measurement-conditions: Binding Capacity (IC50% nM) DR5w12

CC(C)[C@H](NC(=O)[C@H](CO)NC(=O)[C@@H](NC(=O)[C@H](C)NC(=O)[C@H](CO)NC(=O)[C@H](CO)NC(=O)[C@H](C)NC(=O)[C@H](C)NC(=O)[C@H](Cc1ccc(O)cc1)NC(=O)[C@@H](NC(=O)[C@H](CO)NC(=O)CNC(=O)[C@H](CCC(N)=O)NC(=O)[C@@H]1CCCN1C(=O)[C@@H](N)CCC(=O)O)[C@@H](C)O)[C@@H](C)O)C(=O)N[C@@H](CC(=O)O)C(=O)O [Peptide 1136.71]: > 10000 nM
CC(C)C[C@H](NC(=O)[C@H](CC(C)C)NC(=O)CNC(=O)[C@H](C)NC(=O)[C@H](CC(C)C)NC(=O)[C@@H](NC(=O)[C@H](CO)NC(=O)[C@@H](NC(=O)[C@H](C)NC(=O)[C@H](CC(C)C)NC(=O)[C@H](CCCCN)NC(=O)[C@H](Cc1ccc(O)cc1)NC(=O)[C@H](CCCCN)NC(=O)[C@H](CO)NC(=O)[C@@H](N)CCCCN)[C@@H](C)O)C(C)C)C(=O)O [Peptide 1188.16]: > 10000 nM

Consider now this further molecule.
Q: I'd like to know its IC50. The molecule in question is CC[C@H](C)[C@H](N)C(=O)N[C@@H](CCCCN)C(=O)N[C@@H](CC(C)C)C(=O)N1CCC[C@H]1C(=O)N[C@H](C(=O)N[C@H](C(=O)N[C@@H](CC(C)C)C(=O)N[C@@H](C)C(=O)N[C@@H](Cc1ccccc1)C(=O)N[C@@H](C)C(=O)N[C@H](C(=O)N[C@@H](CS)C(=O)N[C@@H](Cc1ccccc1)C(=O)N[C@@H](CC(C)C)C(=O)N[C@H](C(=O)N1CCC[C@H]1C(=O)O)[C@@H](C)CC)[C@@H](C)O)[C@@H](C)CC)[C@@H](C)CC [Peptide 1136.12]
A: > 10000 nM
